# tgt: T1, cMetECDHis (human, UniProt P08581 25-932, limits assumed, biotinylated in the cross-block ELISA of Example 17)
# T1 construct: Expressed in HEK-293F cells; also called soluble cMetECDHis; biotinylated cMetECDHis
# test.description: BLI (Octet); antibody captured, cMetECDHis in solution
Kindly state kon for each of the entries shown.
Your answer should be a plain number; it is taken to be in M⁻¹ s⁻¹.

# binder IgG1-024 (antibody, V domains shown, also called TH1016-024; PC1016-024) VH: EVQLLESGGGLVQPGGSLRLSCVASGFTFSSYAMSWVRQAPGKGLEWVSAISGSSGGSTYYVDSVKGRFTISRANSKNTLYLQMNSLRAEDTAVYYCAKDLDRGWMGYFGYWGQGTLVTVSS VL: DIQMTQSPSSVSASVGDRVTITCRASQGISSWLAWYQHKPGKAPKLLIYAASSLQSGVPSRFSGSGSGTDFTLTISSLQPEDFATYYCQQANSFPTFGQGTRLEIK ; its kon = 145000

# binder anti-c-Met HuMab 006 (IgG1) (antibody, V domains shown, also called TH1016-006; PC1016-006) VH: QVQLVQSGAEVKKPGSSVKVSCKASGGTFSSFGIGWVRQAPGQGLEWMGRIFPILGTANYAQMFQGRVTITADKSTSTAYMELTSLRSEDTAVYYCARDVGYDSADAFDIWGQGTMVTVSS VL: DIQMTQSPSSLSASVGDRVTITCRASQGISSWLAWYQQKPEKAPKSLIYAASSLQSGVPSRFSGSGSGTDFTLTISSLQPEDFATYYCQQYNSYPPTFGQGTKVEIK ; its kon = 425000

Entry source: patent US20150329642A1
